Answer each item with its documented TGI.
# Test system: CAKI-1 renal
# experiment.summary: NCI tumour cell line growth inhibition, 48 h
Express it in µM; write the number only.

Given item `O=C1C=Cc2c(-c3ccccc3)oc3cccc1c23` , the value recorded as its TGI is 48.5

The recorded TGI for Cc1cc2c(C(C)C)c(O)c(O)c(C=NCC3CCCN4CCCCC34)c2cc1-c1cc2c(C=NCC3CCCN4CCCCC34)c(O)c(O)c(C(C)C)c2cc1C (stereo not given) is 14.6

Notebook: `N#Cc1ccccc1C#C/C=C\C#Cc1cccs1` , TGI read as 78

// sample c1ccc2c(c1)Sc1ccccc1N2CC1CN2CCC1CC2 (stereo not given) , its TGI was 21

Consider `C[C@]12CC[C@H](O)C[C@@H]1CC[C@@H]1[C@@H]2CC[C@]2(C)[C@@H](c3cc(C(F)(F)F)n[nH]3)CC[C@@H]12` . Its measured TGI is 26.9
